# tgt: T1, huCDCP1(F30-T667 Q525)-8×His_T3 (human, UniProt Q9H5V8 30-667)
# T1 construct: The construct name gives the limits F30-T667 and Q525; also called recombinant CDCP1 ECD; CDCP1 ECD
# protocol_details: SPR, huCDCP1(F30-T667 Q525)-8×His_T3 as analyte; mAb lot T14
property_name: koff (s⁻¹)
Please respond with the number in s⁻¹ and leave the unit unwritten.

Quick note, koff for ADC3 (CDCP1 mAb conjugated to compound 30, DAR of 8) (antibody, IgG1, V domains shown, compound 30 (Mal-amido-PEG8-Val-Ala-exatecan) conjugated stochastically to reduced cysteines of the IgG1, average DAR 7.3 (called DAR of 8); sites not stated, also called CDCP1-targeted exatecan conjugate) VH: EVQLLESGGGLVQPGGSLRLSCAASGFTFSNYAMNWVRQAPGKGLEWVSAISGGGGSTYYADSVKGRFTISRDNSKNTLYLQMNSLRAEDTAVYYCAKESITMVRGVMDYYGMDVWGQGTTVTVSS VL: DIQLTQSPSFLSASVGDRVTITCRASQGISSYLAWYQQKPGKAPKLLIYAASTLQGGVPSRFSGSGSGTEFTLTISSLQPEDFATYYCQHLNRFPRTFGQGTKVEIK landed at 0.000422

Quick note, koff for CDCP1-vcMMAE (DAR of 4) (antibody, V domains shown, vc-MMAE (Val-Cit linker, monomethyl auristatin E) conjugated to the antibody, DAR of 4; sites not stated, also called CDCP1-MMAE) VH: EVQLLESGGGLVQPGGSLRLSCAASGFTFSNYAMNWVRQAPGKGLEWVSAISGGGGSTYYADSVKGRFTISRDNSKNTLYLQMNSLRAEDTAVYYCAKESITMVRGVMDYYGMDVWGQGTTVTVSS VL: DIQLTQSPSFLSASVGDRVTITCRASQGISSYLAWYQQKPGKAPKLLIYAASTLQGGVPSRFSGSGSGTEFTLTISSLQPEDFATYYCQHLNRFPRTFGQGTKVEIK landed at 0.00038

Quick note, koff for ADC4 (CDCP1 mAb conjugated to compound 30, DAR of 4) (antibody, IgG1, V domains shown, compound 30 (Mal-amido-PEG8-Val-Ala-exatecan) conjugated stochastically to reduced cysteines of the IgG1, average DAR 4; sites not stated) VH: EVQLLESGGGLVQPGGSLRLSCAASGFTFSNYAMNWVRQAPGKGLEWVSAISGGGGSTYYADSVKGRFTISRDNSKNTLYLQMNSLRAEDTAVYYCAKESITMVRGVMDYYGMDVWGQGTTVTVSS VL: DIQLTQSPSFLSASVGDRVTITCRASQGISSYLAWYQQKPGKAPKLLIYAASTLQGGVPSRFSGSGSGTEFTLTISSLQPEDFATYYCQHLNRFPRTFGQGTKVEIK landed at 0.000401

Quick note, koff for ADC2 (CDCP1 mAb conjugated to compound 20, DAR of 4) (antibody, IgG1, V domains shown, compound 20 (maleimide-Val-Ala-PDD linker-payload) conjugated stochastically to reduced cysteines of the IgG1, average DAR 4.2; sites not stated) VH: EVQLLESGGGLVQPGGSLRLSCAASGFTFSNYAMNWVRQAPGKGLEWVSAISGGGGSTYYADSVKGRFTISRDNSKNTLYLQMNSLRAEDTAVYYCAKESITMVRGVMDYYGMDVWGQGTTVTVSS VL: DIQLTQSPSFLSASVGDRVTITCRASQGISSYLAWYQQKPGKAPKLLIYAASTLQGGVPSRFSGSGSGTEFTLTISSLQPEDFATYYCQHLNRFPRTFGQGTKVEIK landed at 0.000374
